Entries and their measured MBC follow.
System: MRSA USA300
Experimental protocol: Antibacterial activity assay (MIC by broth microdilution, MBC by subculture)
Format: cell-based, Staphylococcus aureus
Test parameters: +8 mg/L DHA

>  <Compound>
FC(F)(F)c1cc(Nc2cncc(Nc3ccc(Cl)c(C(F)(F)F)c3)n2)ccc1Cl [SC5010]

>  <MBC>
>64 µg/mL

$$$$
>  <Compound>
C#Cc1cccc(NC(=O)C(CC=C)C(=O)Nc2cccc(C#C)c2)c1 [SC5038]

>  <MBC>
>64 µg/mL

$$$$
>  <Compound>
CN(C(=O)C(CCCl)C(=O)N(C)c1cc(Cl)cc(Cl)c1)c1cc(Cl)cc(Cl)c1 [SC5102]

>  <MBC>
>64 µg/mL

$$$$
